# assay.summary: Liver function, ALT, AST, bilirubin in cynomolgus monkeys (Example 46)
# Type: in vivo
# assay.conditions: Day −5; plasma
Strand notation (5' to 3'): a small letter for the sugar, then the base; units joined by * are phosphorothioate-linked, units joined directly phosphodiester-linked; [ ] holds rarer units or linkages, { } end groups; capitals alone tell only the bases. e = 2'-O-(2-methoxyethyl) (MOE); [5mC] = 5-methylcytosine; d = 2'-deoxy (DNA)
reported.property: AST (IU/L)

substance	recorded.measurement
ISIS 449707: 3-8-3, 4-8-4, 2-10-2, 3-10-3 or 4-10-4 MOE microwalk gapmer (Table 46) (antisense e[5mC]*eA*e[5mC]*eA*dG*dT*dT*dT*d[5mC]*dT*dG*dG*e[5mC]*eA*eG*eG)	53
ISIS 449710: 3-8-3, 4-8-4, 2-10-2, 3-10-3 or 4-10-4 MOE microwalk gapmer (Table 46) (antisense e[5mC]*eA*e[5mC]*dA*dG*dT*dT*dT*d[5mC]*dT*dG*dG*d[5mC]*eA*eG*eG)	38
ISIS 449711: 3-8-3, 4-8-4, 2-10-2, 3-10-3 or 4-10-4 MOE microwalk gapmer (Table 46) (antisense eA*e[5mC]*dA*dG*dT*dT*dT*d[5mC]*dT*dG*dG*d[5mC]*eA*eG)	78
ISIS 445522: 5-8-5 or 6-8-6 MOE microwalk gapmer (Table 44) (antisense eG*e[5mC]*eA*e[5mC]*eA*dG*dT*dT*dT*d[5mC]*dT*dG*dG*e[5mC]*eA*eG*eG*e[5mC])	47
